Target: Mitogen-activated protein kinase 10 (Mus musculus) (UniProt Q61831)
Assay: JNK3 AlphaScreen Assay (AID 530);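 note: kinase came from lysate of stimulated human HepG2 cells; signal reports phosphorylation of biotinylated GST-cJun 1-79 at Ser73 with 10 µM ATP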
Details: JNK3 lysate, c-Jun phosphorylation; series mostly up to 57.1 µM
Source text: NIH Chemical Genomics Center [NCGC] NIH Molecular Libraries Screening Centers Network [MLSCN] The c-jun N-terminal kinase (JNK) family are serine/threonine protein kinases that phosphorylate c-jun, a component of the transcription factor protein-1 (AP-1). […] A homogeneous AlphaScreen is developed to measure the activity of JNK3. […] The phosphorylation of a biotinylated c-jun substrate by JNK3 can be detected with an antibody raised against phosphorylated c-jun. […]
Results filed as inconclusive are left out. Calls of active or inactive are those of the source. Calls come from the whole dose curve; as a rule, active = well fitted curve in either direction with a large enough effect (not every such curve was filed as active); inconclusive = small, poorly fitted or top-dose-only effect, or another doubt; inactive = flat fitted curve, though single readings scatter.
PARAMETER MEASURED: outcome

In [3]: df
Out[3]:
                            chemical_smiles  value_observed
0  COC(=O)[C@@]1(Cc2ccc(OC)cc2)[C@H]2c3cc(C(=O)N(C)C)n(CCSCCO)c3C[C@H]2CN1C(=O)c1ccccc1        inactive
1  COC(=O)[C@@]1(Cc2ccc(F)cc2)[C@H]2c3cc(C(=O)N(C)C)n(CCSCCO)c3C[C@H]2CN1C(=O)c1ccccc1        inactive
2  COC(=O)[C@@]1(Cc2ccc(OC)cc2)[C@H]2c3cc(C(=O)N(C)C)n(Cc4nc5ccccc5[nH]4)c3C[C@H]2CN1C(=O)c1ccccc1        inactive
